From: the supplement of paper PMC9135407

system: primary human hepatic stellate cells (donor 1); assay: scaled lipid accumulation score (0 = DMSO-like, 1 = nortriptyline-like); higher = stronger HSC inactivation (lipid re-accumulation), active = hit call of the paper; settings: library stock concentration: 2 mM; 48 h
About 620 (11%) of roughly 5,800 compounds showed activity. Many of the other results were omitted from the sample, so actives are more common in it than they were.
Please provide measured scaled lipid accumulation score for the entries that follow.

For the compound shown here, Nc1ncnc2nc(-c3ccc(N4CCOCC4)nc3)cc(-c3cccc(Br)c3)c12 , give the reported scaled lipid accumulation score. ≤ -0.001 (inactive)

For the compound shown here, CO[C@@H](C(=O)N1Cc2[nH]nc(NC(=O)c3ccc(N4CCN(C)CC4)cc3)c2C1)c1ccccc1 , give the reported scaled lipid accumulation score. ≤ -0.005 (inactive)

For the compound shown here, COc1cccc2cc(-c3nc([C@H]4CC[C@H](C(=O)O)CC4)n4ncnc(N)c34)[nH]c12 , give the reported scaled lipid accumulation score. ≤ 0 (inactive)

For the compound shown here, COc1cc2c(Nc3ccc(Br)cc3F)ncnc2cc1OCC1CCN(C)CC1 [Vandetanib (ZD6474, Zactima) (2 mM)] , give the reported scaled lipid accumulation score. 0.855 (active)

For the compound shown here, O=C(Cc1ccc(-c2ccc(OCCN3CCOCC3)cc2)cn1)NCc1ccccc1 , give the reported scaled lipid accumulation score. 0.077 (inactive)

For the compound shown here, O=C1Nc2ccc(Cl)cc2/C1=C/c1cc(Cl)c(O)c(Cl)c1 , give the reported scaled lipid accumulation score. ≤ -0.001 (inactive)

For the compound shown here, Cc1cnc(-c2cnc(NCCNc3ccc(C#N)cn3)nc2-c2ccc(Cl)cc2Cl)[nH]1 , give the reported scaled lipid accumulation score. 0.182 (inactive)

For the compound shown here, C=CC(=O)N1CCC(Oc2cc3c(Nc4ccc(Cl)c(Cl)c4F)ncnc3cc2OC)CC1 [Poziotinib] , give the reported scaled lipid accumulation score. 0.059 (inactive)

For the compound shown here, Cc1[nH]c(/C=C2\C(=O)Nc3ccc(S(=O)(=O)Cc4c(Cl)cccc4Cl)cc32)c(C)c1C(=O)N1CCC[C@@H]1CN1CCCC1 , give the reported scaled lipid accumulation score. 1.16 (active)

For the compound shown here, Cc1ccc(C(=O)Nc2cccc(C(F)(F)F)c2)cc1-c1ccc2nc(NCCN3CCOCC3)ncc2c1 , give the reported scaled lipid accumulation score. 0.748 (inactive)

For the compound shown here, Cc1[nH]c(/C=C2/C(=O)Nc3ccc(S(=O)(=O)N(C)c4cccc(Cl)c4)cc32)c(C)c1C(=O)N1CCN(C)CC1 , give the reported scaled lipid accumulation score. 0.927 (active)

For the compound shown here, CN(C)CC(C)(C)CNc1nn2c(-c3ccccc3)nnc2cc1C1CCC1 , give the reported scaled lipid accumulation score. ≤ -0.005 (inactive)

For the compound shown here, C[C@@H](N)c1ccc(C(=O)Nc2ccnc3[nH]ccc23)cc1 , give the reported scaled lipid accumulation score. 0.069 (inactive)

For the compound shown here, O=C(O)Cc1c2ccccc2n2c1[nH]c(=O)c1ccccc12 , give the reported scaled lipid accumulation score. ≤ -0.001 (inactive)

For the compound shown here, CCCCCCCCCCCCCCCCn1cc[n+](Cc2ccccc2)c1C , give the reported scaled lipid accumulation score. ≤ -0.001 (inactive)

For the compound shown here, C[C@@H](O)[C@@H]1NC(=O)[C@H](CCCCN)NC(=O)[C@@H](Cc2c[nH]c3ccccc23)NC(=O)[C@H](Cc2ccccc2)NC(=O)[C@@H](NC(=O)[C@H](N)Cc2ccccc2)CSSC[C@@H](C(=O)N[C@H](CO)[C@@H](C)O)NC1=O [Octreotide] , give the reported scaled lipid accumulation score. 0.006 (inactive)

For the compound shown here, Cc1ccc(S(=O)(=O)/C=C/C#N)cc1 , give the reported scaled lipid accumulation score. 0.813 (inactive)

* * *

test system: primary human hepatic stellate cells (donor 1); assay: scaled lipid accumulation score (0 = DMSO-like, 1 = nortriptyline-like); higher = stronger HSC inactivation (lipid re-accumulation), active = hit call of the paper; conditions: library stock concentration: 10 mM; 48 h
Structures can show the parent of a compound that is named as a salt. In all, about 5,800 compounds went through this assay and about 620 (11%) showed activity.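 Rule for the calls: active = score above a cut-off or among the top three wells of a plate; in these data no inactive exceeds 0.85.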 The list comes from a sample in which actives are over-represented; it also holds close analogues and randomly drawn compounds.
Select the correct class. Options are true (active), false (inactive) and nothing else.

Recorded test call requested for Cc1cnc(-c2ccccc2C(C)C)nc1NCc1ccc(-n2ccnn2)cc1 false

Recorded test call requested for Cc1nnc(-c2ccc3occ(-c4ccc([S+](C)[O-])cc4)c3c2)o1 (stereo not given) false

Recorded test call requested for CN1c2cc(O)c(N=NC(N)=O)cc2CC1S(=O)(=O)O (stereo not given) [Carbazochrome sodium sulfonate (AC-17)] false

Recorded test call requested for CC(=O)OCOC(=O)CN(CC(=O)OCOC(C)=O)c1ccccc1OCCOc1ccccc1N(CC(=O)OCOC(C)=O)CC(=O)OCOC(C)=O false

Recorded test call requested for COCC[n+]1c2c(n(Cc3cnccn3)c1C)C(=O)c1ccccc1C2=O [YM155 (Sepantronium Bromide)] false

Recorded test call requested for CO[C@H]1C[C@@H]2CC[C@@H](C)[C@@](O)(O2)C(=O)C(=O)N2CCCC[C@H]2C(=O)O[C@H]([C@H](C)C[C@@H]2CC[C@@H](OC(=O)C(C)(CO)CO)[C@H](OC)C2)CC(=O)[C@H](C)/C=C(\C)[C@@H](O)[C@@H](OC)C(=O)[C@H](C)C[C@H](C)/C=C/C=C/C=C/1C false

Recorded test call requested for N#Cc1ccc2c(c1)N(CCCN1CCC(O)CC1)c1ccccc1S2 false

Recorded test call requested for O=C(NCCN1CCOCC1)c1ccc(Cl)cc1 [4-Chloro-N-(2-morpholin-4-yl-ethyl)-benzamide] false

Recorded test call requested for CCOC(=O)C1=C(N)Oc2ccc(Br)cc2[C@H]1[C@H](C#N)C(=O)OCC true

Recorded test call requested for O=C(O)CCC/C=C\C[C@@H]1CO[C@H](C(F)(F)F)O[C@@H]1c1ccccc1O false

Recorded test call requested for COCCOc1cc2ncnc(Cl)c2cc1OCCOC false

Recorded test call requested for O=C(NCCN1CCOCC1)c1ccc(Cl)cc1 false

Recorded test call requested for COC(=O)C1=C(C)NC(C)=C(C(=O)OCCCN2CCC(c3ccccc3)(c3ccccc3)CC2)[C@@H]1c1cccc([N+](=O)[O-])c1 [(R)-(-)-Niguldipine hydrochloride] false

Recorded test call requested for C[C@@H](O)[C@H]1C(=O)N2C(C(=O)OCOC(=O)C(C)(C)C)=C(SC3CN(C4=NCCS4)C3)[C@H](C)[C@H]12 false

Recorded test call requested for Cc1c(C(=O)Nc2ccc(N3CCC(N4CCOCC4)CC3)c(C#N)c2)cnn1-c1ccc(Cl)cc1 false

* * *

system: primary human hepatic stellate cells (donor 1); assay: scaled lipid accumulation score (0 = DMSO-like, 1 = nortriptyline-like); higher = stronger HSC inactivation (lipid re-accumulation), active = hit call of the paper; settings: library stock concentration: 1 mM; 48 h
In all, about 5,800 compounds went through this assay and about 620 (11%) showed activity.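 Rule for the calls: active = score above a cut-off or among the top three wells of a plate; in these data no inactive exceeds 0.85.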 This is one part of a sample in which actives are shown more often than they occur.
Select the correct class. Options are 1.0 (active), 0.0 (inactive) and nothing else.

Recorded test call requested for CCCCC[C@H](O)/C=C/[C@H]1CC[C@@H](O)[C@@H]1CCCCCCC(=O)O 0.0

Recorded test call requested for O=C(O)CCC/C=C\CC1C(O)CC(O)C1/C=C/C(O)COc1cccc(Cl)c1 (stereo not drawn) 0.0

Recorded test call requested for CCCCC[C@](C)(O)/C=C/[C@@H]1[C@@H](C/C=C\CCCC(=O)OC)[C@@H](O)C[C@H]1O [15(S)-15-methyl Prostaglandin F2.alpha. methyl ester] 0.0

Recorded test call requested for CCCCCCCCCCCCCCCC(=O)OC 0.0

Recorded test call requested for CCCCC[C@H](O)/C=C/[C@H]1CCC(=O)[C@@H]1C/C=C\CCCC(=O)O [11-deoxy Prostaglandin E2] 0.0

Recorded test call requested for CCCCC(=O)Oc1ccccc1C(=O)O [Valeroyl Salicylate] 0.0

Recorded test call requested for CCCCCCCCC=CCC=CCC=CCCCC(=O)O [5(Z),8(Z),11(Z)-Eicosatrienoic Acid] 0.0

Recorded test call requested for COc1cc2nc(N3CCCN(C)CC3)nc(NC3CCN(Cc4ccccc4)CC3)c2cc1OC.Cl.Cl.Cl.O 1.0

* * *

tested on: primary human hepatic stellate cells (donor 1); test: scaled lipid accumulation score (0 = DMSO-like, 1 = nortriptyline-like); higher = stronger HSC inactivation (lipid re-accumulation), active = hit call of the paper; conditions: library stock concentration: 3.33 mM; 48 h
Where a name gives a salt, the structure may show the parent alone. Out of some 5,800 compounds screened, about 620 (11%) showed activity. Only a selection was taken, and actives are over-represented in it overall.
measured-endpoint: scaled lipid accumulation score

For the compound shown here, CNC(=C[N+](=O)[O-])NCCSCc1ccc(CN(C)C)o1 [Ranitidine] , give the reported scaled lipid accumulation score. ≤ 0 (inactive)

For the compound shown here, CC[C@@]1(O)C(=O)OCc2c1cc1n(c2=O)Cc2cc3c(CN(C)C)c(O)ccc3nc2-1 [Topotecan HCl] , give the reported scaled lipid accumulation score. ≤ 0 (inactive)

For the compound shown here, Cn1cnc(=N)c2[nH]cnc21 [3-Methyladenine] , give the reported scaled lipid accumulation score. ≤ 0 (inactive)

For the compound shown here, Nc1nc(Nc2ccc(S(N)(=O)=O)cc2)nn1C(=S)Nc1c(F)cccc1F [Cdk1/2 Inhibitor III] , give the reported scaled lipid accumulation score. 0.782 (inactive)

For the compound shown here, NC(=O)N1c2ccccc2C=Cc2ccccc21 [Carbamazepine] , give the reported scaled lipid accumulation score. 0.025 (inactive)

For the compound shown here, CC1(C)CCC(c2ccc(Cl)cc2)=C(CN2CCN(c3ccc(C(=O)NS(=O)(=O)c4ccc(N[C@H](CCN5CCOCC5)CSc5ccccc5)c(S(=O)(=O)C(F)(F)F)c4)cc3)CC2)C1 [ABT-263 (Navitoclax)] , give the reported scaled lipid accumulation score. 0.024 (inactive)

For the compound shown here, CCc1c2c(nc3ccc(OC(=O)N4CCC(N5CCCCC5)CC4)cc13)-c1cc3c(c(=O)n1C2)COC(=O)[C@]3(O)CC [Irinotecan] , give the reported scaled lipid accumulation score. 0.151 (inactive)

For the compound shown here, CCc1c2c(nc3ccc(O)cc13)-c1cc3c(c(=O)n1C2)COC(=O)[C@]3(O)CC , give the reported scaled lipid accumulation score. ≤ 0 (inactive)

For the compound shown here, COc1cc2nccc(Oc3ccc(NC(=O)C4(C(=O)Nc5ccc(F)cc5)CC4)cc3)c2cc1OC [Cabozantinib malate (XL184)] , give the reported scaled lipid accumulation score. 0.354 (inactive)

For the compound shown here, O=C(O)C=Cc1cc(Br)c(Br)c(Br)c1Br [Casein Kinase II Inhibitor III, TBCA] , give the reported scaled lipid accumulation score. ≤ 0 (inactive)

For the compound shown here, CN1C(CCl)Nc2cc(Cl)c(S(N)(=O)=O)cc2S1(=O)=O (configuration not stated) [Methyclothiazide] , give the reported scaled lipid accumulation score. ≤ 0 (inactive)

For the compound shown here, CC(/C=C1\SC(=S)N(CC(=O)O)C1=O)=C\c1ccccc1 [Epalrestat] , give the reported scaled lipid accumulation score. ≤ 0 (inactive)

For the compound shown here, O=C(NCCCNc1nc(Nc2cccc(NC(=O)N3CCCC3)c2)ncc1I)c1cccs1 , give the reported scaled lipid accumulation score. 0.048 (inactive)

For the compound shown here, CC(C)n1cnc2c(NCCc3ccc(O)cc3)nc(-c3csc4ccccc34)nc21 [StemRegenin 1 (SR1)] , give the reported scaled lipid accumulation score. ≤ 0 (inactive)

For the compound shown here, O=NN(CCCl)C(=O)NC1CCCCC1 [Lomustine] , give the reported scaled lipid accumulation score. 0.044 (inactive)

For the compound shown here, O=C(Nc1ccncc1)Nc1c(Cl)cc(Cl)cc1Cl [Rho Kinase Inhibitor II] , give the reported scaled lipid accumulation score. ≤ 0 (inactive)

For the compound shown here, CC[C@H](CO)Nc1nc(NCc2ccc(-c3ccccn3)cc2)c2ncn(C(C)C)c2n1 [CR8, (R)-Isomer] , give the reported scaled lipid accumulation score. ≤ 0 (inactive)
